test: NCI Yeast Anticancer Drug Screen. Data for the mec2-1 strain (AID 157); conditions: S. cerevisiae mec2-1 strain, at 5.0 µM (retest, dose inferred, filed as 0.5), stronger effect = higher value
This is part of a sample that, as a whole, favours compounds with a hit. Of some 79,000 tested, about 15% had one in any assay.
property: growth inhibition (%)
Express it in %; write the number only.

Example results:
molecule: CN(C)Cc1ccc2[nH]c3c(c2c1)CCCC3
growth inhibition (%): 11

molecule: O=C(NCC#CCO)C(F)(F)F
growth inhibition (%): -14

molecule: COc1cc(C(c2cc3c(cc2OC(C)=O)OCO3)C(C)C(C)=O)cc(OC)c1OC (stereo unspecified)
growth inhibition (%): 4

// growth inhibition lookup, molecule = C1=C([P+](c2ccccc2)(c2ccccc2)c2ccccc2)CCCC1 , result: -2
